Test system: PA14 4.18 (pmrB)
Test: microbe, parasite or virus in culture
Conditions: supplementary CSV
Procedure: Antimicrobial activity was determined for all peptides on E. coli W3110, P. aeruginosa PAO1, A. baumannii ATCC19606, K. pneumoniae NCTC418, and methicillin-resistant S. aureus COL and for selected peptides on P. aeruginosa PA14 and the polymyxin B-resistant derivatives PA14 4.13, PA14 4.18, and PA14 2P4 as well as the clinical isolates ZEM-1A and ZEM9A, K. pneumoniae OXA-48, Enterobacter cloacae, Stenotrophomonas maltophilia, B. cenocepacia, and Staphylococus epidermis. […]
property: MIC P. aeruginosa PA14 4.18 (µg/mL)
One number for each entry, in µg/mL.

A selection of reference data follows.
CC(C)C[C@H](NC(=O)[C@H](CCCCN)NC(=O)[C@H](N)CCCCN)C(=O)N[C@@H](CC(C)C)C(=O)N[C@@H](CCCCN)C(=O)N[C@@H](CC(C)C)C(=O)N[C@@H](CC(C)C)C(=O)N[C@@H](CCCCN)C(=O)N[C@@H](CC(C)C)C(=O)N[C@@H](CC(C)C)C(=O)N[C@H](CC(C)C)C(N)=O [HP5] :: 16
CC(C)C[C@H](NC(=O)[C@H](CC(C)C)NC(=O)[C@H](CC(C)C)NC(=O)[C@H](CCCCN)NC(=O)[C@H](CC(C)C)NC(=O)[C@H](CC(C)C)NC(=O)[C@@H](CCCCN)NC(=O)[C@H](CC(C)C)NC(=O)[C@H](CC(C)C)NC(=O)[C@@H](CCCCN)NC(=O)[C@H](N)CCCCN)C(N)=O [HP10, kkLLkLLKLLL] :: 16

Turning now to a further record.
Look up MIC P. aeruginosa PA14 4.18 for this molecule: CC(C)C[C@@H](NC(=O)[C@@H](CC(C)C)NC(=O)[C@@H](CC(C)C)NC(=O)[C@H](CCCCN)NC(=O)[C@@H](CC(C)C)NC(=O)[C@@H](CC(C)C)NC(=O)[C@H](CCCCN)NC(=O)[C@@H](CC(C)C)NC(=O)[C@@H](CC(C)C)NC(=O)[C@H](CCCCN)NC(=O)[C@@H](N)CCCCN)C(N)=O [dln69, KKllKllKlll]
8
